Entries and their MIC values follow.
Tested on: Pseudomonas ovalis IAM 1002
Assay: MIC against Pseudomonas ovalis IAM 1002
Assay type: cell-based
Conditions: Pseudomonas putida, IAM1002
Report the figure in µg/mL without appending any unit label.

Consider the worked cases shown below.
>>> print(df.to_string())
                            compound_string  reading
0  Cc1nc(S)cc(SCC2=C(C(=O)O)N3C(=O)[C@@H](NC(=O)[C@H](NC(=O)c4cnccc4O)c4ccccc4)[C@H]3SC2)n1     12.5
1  Nc1nc(S)cc(SCC2=C(C(=O)O)N3C(=O)[C@@H](NC(=O)[C@H](NC(=O)c4cnccc4O)c4ccccc4)[C@H]3SC2)n1     12.5
2  Cc1c(S)sc(SCC2=C(C(=O)O)N3C(=O)[C@@H](NC(=O)[C@H](NC(=O)c4cnccc4O)c4ccccc4)[C@H]3SC2)c(C)c1=O     6.25
3  CSc1nc(S)cc(SCC2=C(C(=O)O)N3C(=O)[C@@H](NC(=O)[C@H](NC(=O)c4cnccc4O)c4ccccc4)[C@H]3SC2)n1     12.5

--- query ---
Measured MIC of `O=C(O)C1=C(CSc2cc(S)ncn2)CS[C@@H]2[C@H](NC(=O)[C@H](NC(=O)c3cnccc3O)c3ccccc3)C(=O)N12` : 6.25

----------
Entries and their log10 MIC values follow.
Test system: proteus vulgaris OX 19US
Assay: MIC against proteus vulgaris OX 19US
Assay type: cell-based
Details: OX19US; proteus vulgaris OX 19US; read-out: MIC
Base-10 log of MIC, unit µg/mL.

Consider the worked cases shown below.
>>> print(df.to_string())
                                   compound  reading
0  O=C(O)C1=C(CSc2ccc(S)nn2)CS[C@@H]2[C@H](NC(=O)[C@H](NC(=O)c3cnccc3O)c3ccccc3)C(=O)N12    -0.11
1  CC(=O)Nc1nc(S)nc(SCC2=C(C(=O)O)N3C(=O)[C@@H](NC(=O)[C@H](NC(=O)c4cnccc4O)c4ccccc4)[C@H]3SC2)n1     0.80
2  Cc1c(S)sc(SCC2=C(C(=O)O)N3C(=O)[C@@H](NC(=O)[C@H](NC(=O)c4cnccc4O)c4ccccc4)[C@H]3SC2)c(C)c1=O    -0.41
3  Cc1nc(S)cc(SCC2=C(C(=O)O)N3C(=O)[C@@H](NC(=O)[C@H](NC(=O)c4cnccc4O)c4ccccc4)[C@H]3SC2)n1     0.19

--- query ---
Measured log10 MIC of CC(=O)OCC1=C(C(=O)O)N2C(=O)[C@@H](NC(=O)[C@H](N)c3ccccc3)[C@H]2SC1 [Cephaloglycin, reference compound] : 2.00

----------
Tested on: staphylococcus Shimanishi
Assay: MIC against staphylococcus Shimanishi
Type: cell-based
Conditions: staphylococcus Shimanishi; read-out: MIC
observable: MIC (µg/mL)
Report the figure in µg/mL without appending any unit label.

Consider the worked cases shown below.
In [3]: df
Out[3]:
                                   molecule            subject_of_test  observable  reading
0  O=C(O)C1=C(CSc2ccc(S)nn2)CS[C@@H]2[C@H](NC(=O)[C@H](NC(=O)c3cnccc3O)c3ccccc3)C(=O)N12 [Example 1]  staphylococcus Shimanishi         MIC     1.56
1  O=C(O)C1=C(CSc2cc(S)ncn2)CS[C@@H]2[C@H](NC(=O)[C@H](NC(=O)c3cnccc3O)c3ccccc3)C(=O)N12 [Example 5]  staphylococcus Shimanishi         MIC     3.13

--- query ---
Record Cc1nc(S)cc(SCC2=C(C(=O)O)N3C(=O)[C@@H](NC(=O)[C@H](NC(=O)c4cnccc4O)c4ccccc4)[C@H]3SC2)n1 [Example 2] has staphylococcus Shimanishi MIC equal to 3.13

----------
Endpoint: MIC. System: proteus mirabilis IFM OM-19. Items follow.
Report the figure in µg/mL without appending any unit label.

molecule	reading
Cc1c(S)sc(SCC2=C(C(=O)O)N3C(=O)[C@@H](NC(=O)[C@H](NC(=O)c4cnccc4O)c4ccccc4)[C@H]3SC2)c(C)c1=O	0.78
Nc1nc(S)cc(SCC2=C(C(=O)O)N3C(=O)[C@@H](NC(=O)[C@H](NC(=O)c4cnccc4O)c4ccccc4)[C@H]3SC2)n1	1.56
Cc1nc(S)cc(SCC2=C(C(=O)O)N3C(=O)[C@@H](NC(=O)[C@H](NC(=O)c4cnccc4O)c4ccccc4)[C@H]3SC2)n1	0.39
O=C(O)C1=C(CSc2cc(S)ncn2)CS[C@@H]2[C@H](NC(=O)[C@H](NC(=O)c3cnccc3O)c3ccccc3)C(=O)N12	0.19

Measured MIC of Cc1nnc(SCC2=C(C(=O)O)N3C(=O)C(NC(=O)C(NC(=O)c4cccnc4)c4ccccc4)C3SC2)s1 (stereo not shown) [Example C-2, reference compound] : 25

Measured MIC of CC(=O)OCC1=C(C(=O)O)N2C(=O)[C@@H](NC(=O)[C@H](N)c3ccccc3)[C@H]2SC1 [Cephaloglycin, reference compound] : 100

Measured MIC of `CSc1nc(S)cc(SCC2=C(C(=O)O)N3C(=O)[C@@H](NC(=O)[C@H](NC(=O)c4cnccc4O)c4ccccc4)[C@H]3SC2)n1` : 0.78
